From: patent US20130197191A1

- System under test: T1, recombinant human β-Klotho (human, UniProt Q86Z14 53-996, limits assumed, biotinylated in the AlphaScreen assays (site not stated))
- T1 construct: also called rhβ-klotho; huβKlotho-His
- T1 sequence: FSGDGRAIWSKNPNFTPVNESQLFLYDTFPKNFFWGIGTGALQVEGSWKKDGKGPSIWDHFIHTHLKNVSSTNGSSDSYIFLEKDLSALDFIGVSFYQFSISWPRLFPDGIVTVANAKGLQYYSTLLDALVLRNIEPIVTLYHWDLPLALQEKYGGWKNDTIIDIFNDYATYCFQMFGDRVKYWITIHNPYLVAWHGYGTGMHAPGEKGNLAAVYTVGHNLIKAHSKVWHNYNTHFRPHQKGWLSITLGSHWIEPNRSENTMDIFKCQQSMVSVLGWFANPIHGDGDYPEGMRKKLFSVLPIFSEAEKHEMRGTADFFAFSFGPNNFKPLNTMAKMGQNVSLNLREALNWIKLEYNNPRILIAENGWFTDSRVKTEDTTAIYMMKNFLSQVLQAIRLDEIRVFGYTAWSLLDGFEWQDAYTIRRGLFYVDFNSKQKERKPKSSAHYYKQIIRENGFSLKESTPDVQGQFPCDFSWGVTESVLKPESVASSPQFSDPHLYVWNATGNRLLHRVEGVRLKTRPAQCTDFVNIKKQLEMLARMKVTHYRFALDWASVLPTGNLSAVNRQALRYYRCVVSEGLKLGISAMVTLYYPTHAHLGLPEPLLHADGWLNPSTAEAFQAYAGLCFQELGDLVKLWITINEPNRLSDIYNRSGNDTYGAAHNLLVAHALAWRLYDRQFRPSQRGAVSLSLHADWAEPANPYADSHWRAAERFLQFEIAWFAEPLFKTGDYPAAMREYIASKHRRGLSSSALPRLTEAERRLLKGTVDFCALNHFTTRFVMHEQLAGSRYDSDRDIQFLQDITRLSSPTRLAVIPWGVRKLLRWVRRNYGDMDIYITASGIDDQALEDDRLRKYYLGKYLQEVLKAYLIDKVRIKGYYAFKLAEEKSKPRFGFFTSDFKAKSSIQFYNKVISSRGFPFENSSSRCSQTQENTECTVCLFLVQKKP
- Measurement description: phage panning
Measurement kind: binding result

CPPHIEDHCERRDGDGVCQKPCDFYGCLWDGVNCDMDLVQELT (designed binder) [β-Klotho-binding monomer LNR_M02]    binds
CIAAKLCERLDGDGSCQSECGNATCGWDGMDCDEKENDELT (designed binder) [β-Klotho-binding monomer LNR_M08]    binds
CLYQDCKEYYGDGNCSKGCNLAECLWDGGDCGTIFLADVT (designed binder) [β-Klotho-binding monomer LNR_M07]    binds
